Test system: HOP-62 multicell spheroids with HUVEC/MSC, viability
Experiment: Anticancer human tumor HOP-62 cell line growth inhibition [KRAS2];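 further: viability read after a week of compound exposure; 100% = DMSO vehicle-treated spheroids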
Details: second compound 3.16 µM; first compound 3.16 µM; stronger effect = lower value
attributeMeasured: viability, T/C (%)
// return numeric value only (unit: %, not printed)

# compound, viability, T/C / %
rows = [
    ("CC(=O)OC12COC1CC(O)C1(C)C(=O)C(O)C3=C(C)C(OC(=O)C(O)C(NC(=O)OC(C)(C)C)c4ccccc4)CC(O)(C(OC(=O)c4ccccc4)C21)C3(C)C (stereo not drawn) + CC1OCC2(CCN(c3cnc(Sc4ccnc(N)c4Cl)c(N)n3)CC2)C1N", 26.9),
    ("Cn1nccc1Nc1nccc(-c2cc3c(s2)C(C)(C)N(CCN2CCOCC2)C3=O)n1 + COc1cc2nc(C)nc(NC(C)c3cc(N)cc(C(F)(F)F)c3)c2cc1OC1CCOC1", 22),
    ("O=C(c1cc(Cc2n[nH]c(=O)c3ccccc23)ccc1F)N1CCN(C(=O)C2CC2)CC1 + CNCc1ccccc1-c1csc(C(C)Nc2nc(C)nc3cc(OC)c(OC)cc23)c1", 42.3),
]

**Q:** Lookup: viability, T/C / HOP-62 multicell spheroids with HUVEC/MSC, viability / CC(C)NCC(C(=O)N1CCN(c2ncnc3c2C(C)CC3O)CC1)c1ccc(Cl)cc1 (stereo not drawn) + CNCc1ccccc1-c1csc(C(C)Nc2nc(C)nc3cc(OC)c(OC)cc23)c1
**A:** 0.17

**Q:** Would you kindly repeat that for Cn1nccc1Nc1nccc(-c2cc3c(s2)C(C)(C)N(CCN2CCOCC2)C3=O)n1 + CNCc1ccccc1-c1csc(C(C)Nc2nc(C)nc3cc(OC)c(OC)cc23)c1 ?
**A:** 0.1

**Q:** Would you kindly repeat that for CC1OCC2(CCN(c3cnc(Sc4ccnc(N)c4Cl)c(N)n3)CC2)C1N (stereo not drawn) + C=CC(=O)N1CCN(c2nc(OCC3CCCN3C)nc3c2CCN(c2cccc4cccc(C)c24)C3)CC1CC#N ?
**A:** 0.72

**Q:** Would you kindly repeat that for CC1OCC2(CCN(c3cnc(Sc4ccnc(N)c4Cl)c(N)n3)CC2)C1N (stereo not drawn) + COc1cc2nc(C)nc(NC(C)c3cc(N)cc(C(F)(F)F)c3)c2cc1OC1CCOC1 ?
**A:** 25.7

**Q:** Would you kindly repeat that for CC1(C)CCC(CN2CCN(c3ccc(C(=O)NS(=O)(=O)c4ccc(NCC5CCOCC5)c([N+](=O)[O-])c4)c(Oc4cnc5[nH]ccc5c4)c3)CC2)=C(c2ccc(Cl)cc2)C1 + CNCc1ccccc1-c1csc(C(C)Nc2nc(C)nc3cc(OC)c(OC)cc23)c1 ?
**A:** 13.5
